Consider the following binders; for each one, report its pKd.
Target: T1, SNTB1, Q13884
T1 sequence (Q13884 107-205, limits assumed, looked up): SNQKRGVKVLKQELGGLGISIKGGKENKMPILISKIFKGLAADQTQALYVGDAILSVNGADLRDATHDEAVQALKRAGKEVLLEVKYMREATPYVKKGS
Assay: holdup assay
Parameters: key: below the threshold = too weak to quantify, mostly under pKd 3.1 to 4
Details: plain residues with an end cap or a label only (N-terminal biotin on a linker: ado-ado)
Answers are plain numbers.

Param item = TASPAKETSF [SLC2A7, Q6PXP3] ; retrieve measured pKd.
3.53

Below: the item to evaluate.
Param item = QGLAERISVL [PRKD2, Q9BZL6] ; retrieve measured pKd.
4.92
